// reported log10 of IC50 for each item listed
# System: human NOMO-1 AML cells
# protocol summary: Viability of human NOMO-1 AML cells (MTT, CellTiter 96)
# Format: cell-based
# test parameters: NOMO-1 cells, 10,000 cells/well, 72 h treatment, read-out: IC50 in inhibiting the viability of human NOMO-1 AML cells
observed property: log10 of IC50 (log10 of the value in nM)

>  <compound>
Nc1nc(N)c2c(ccc3c2ccn3Cc2ccc(Cl)cc2)n1 [Compound (F)]

>  <log10 of IC50>
0.19

$$$$
>  <compound>
Nc1nc(N)c2c(ccc3[nH]ccc32)n1 [Compound H]

>  <log10 of IC50>
2.97

$$$$
>  <compound>
N#Cc1ccc(C(=O)n2ccc3c4c(N)nc(N)nc4ccc32)cc1 [Compound (G)]

>  <log10 of IC50>
2.87

$$$$
>  <compound>
N#Cc1ccc(-n2ccc3c4c(N)nc(N)nc4ccc32)cc1 [Compound (E)]

>  <log10 of IC50>
1.31

$$$$
>  <compound>
CC(=O)Nc1ccc(Cn2ccc3c4c(N)nc(N)nc4ccc32)cc1 [Compound D]

>  <log10 of IC50>
0.15

$$$$

Ref: patent US12576082B2
